Target Or Test System: Bcl-2 (Homo sapiens (Human))
Sequence (P10415 whole entry): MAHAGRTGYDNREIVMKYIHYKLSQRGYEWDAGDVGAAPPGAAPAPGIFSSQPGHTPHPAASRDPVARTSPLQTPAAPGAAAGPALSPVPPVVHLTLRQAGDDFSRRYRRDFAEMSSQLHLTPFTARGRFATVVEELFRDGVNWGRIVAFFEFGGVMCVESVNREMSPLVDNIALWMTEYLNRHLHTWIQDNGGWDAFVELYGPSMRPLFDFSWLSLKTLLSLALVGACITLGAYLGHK
Test Method Notes: Bcl-2 HTRF assay (FAM-Bak peptide)
Type: binding
Condition: read-out: Bc1-2 IC50
Measure Name: IC50

Bench note: what IC50 did CC1(C)CCC(C23CC(C)(C2)C3)=C(CN2CCN(c3ccc(C(=O)NS(=O)(=O)c4ccc(N[C@H](CCN5CCC(O)CC5)CSc5ccccc5)c(S(=O)(=O)C(F)(F)F)c4)cc3)CC2)C1 [Example 48] show?
< 10 nM

----------
The entries below are paired with their reported pIC50.
Target Or Test System: Bcl-XL (Homo sapiens (Human), UniProt Q07817)
Sequence (Q07817 whole entry): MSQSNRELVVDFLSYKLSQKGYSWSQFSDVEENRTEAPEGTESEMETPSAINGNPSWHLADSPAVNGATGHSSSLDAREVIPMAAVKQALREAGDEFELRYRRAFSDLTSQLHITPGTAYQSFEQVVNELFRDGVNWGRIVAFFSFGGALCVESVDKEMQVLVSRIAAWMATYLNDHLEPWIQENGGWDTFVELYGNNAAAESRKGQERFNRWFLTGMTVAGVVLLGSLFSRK
Test Method Notes: Bcl-XL HTRF assay (FAM-Bad peptide)
Assay type: binding
Condition: HTRF, 3 nM Bcl-XL, 40 nM FAM-Bad peptide; read-out: Bc1-XL IC50
pIC50: −log10 of the molar value.

Some solved cases for reference:
1. CCN(CCO)CC[C@H](CSc1ccccc1)Nc1ccc(S(=O)(=O)NC(=O)c2ccc(N3CCN(CC4=C(C56CC(C(F)F)(C5)C6)CC(C)(C)CC4)CC3)cc2)cc1S(=O)(=O)C(F)(F)F [Example 70]
≥ 8.00
2. CC1(C)CCC(CN2CCN(c3ccc(C(=O)NS(=O)(=O)c4ccc(NCC5(F)CCOCC5)c([N+](=O)[O-])c4)c(Oc4cnc5[nH]ccc5c4)c3)CC2)=C(C23CC(C)(C2)C3)C1 [Example 15]
≤ 7.00

Kindly consider the entry below.
Bench note: what pIC50 did CCC12CC(C3=C(CN4CCN(c5ccc(C(=O)NS(=O)(=O)c6ccc(N[C@H](CCN(C)CCO)CSc7ccccc7)c(S(=O)(=O)C(F)(F)F)c6)cc5)CC4)CCC(C)(C)C3)(C1)C2 [Example 50] show?
≥ 8.00
